- assay overview: Protonation constants of the ligands by pH-potentiometric titration
- Format: physicochemical
- recorded conditions: ligand protonation constant; I = 0.15 M NaCl, 25 °C
quantity kind: log K1H

Record excerpt, results attached:
NC(=O)CN1CCN(CC(N)=O)Cc2cccc(n2)CN(CC(N)=O)CC1 [PC3AM^H] :: 8.76 (3)
O=C(O)CNC(=O)CN1CCN(CC(=O)NCC(=O)O)Cc2cccc(n2)CN(CC(=O)NCC(=O)O)CC1 [PC3AM^Gly] :: 8.85 (1)
O=C(CN1CCN(CC(=O)N2CCCCC2)Cc2cccc(n2)CN(CC(=O)N2CCCCC2)CC1)N1CCCCC1 [PC3AM^Pip] :: 8.74 (1)

Could you now consider this next molecule?
Name the recorded log K1H for O=C(O)CN1CCNCCN(CC(=O)O)CCN(CC(=O)O)CC1 [DO3A] .
10.07 (5)
